# System: medullary thyroid carcinoma primary cultures
# Test Name: Calcitonin secretion by MTC primary cultures (IRMA)
# Format: cell-based, human
# Condition Parameters: MTC primary culture #18 (non responder), 10^−8 M, six hours
Square brackets hold non-standard residues; d marks the D form. Peptide text beside a SMILES is read from it. Tic = O=C(O)[C@@H]1Cc2ccccc2CN1; Abu = CC[C@H](N)C(=O)O
Endpoint Label: % CT secretion inhibition vs. control (%)
// return numeric value only (unit: %, not printed)

Consider the compound CC(C)[C@@H]1NC(=O)[C@H](CCCCN)NC(=O)[C@@H](Cc2c[nH]c3ccccc23)NC(=O)[C@H](Cc2ccc(O)cc2)NC(=O)[C@@H](NC(=O)[C@H](N)Cc2ccc3ccccc3c2)CSSC[C@@H](C(=O)N[C@H](C(N)=O)[C@@H](C)O)NC1=O [lanreotide, reference compound] and give its recorded % CT secretion inhibition vs. control.
−10.8

Consider the compound C[C@@H](O)[C@H](NC(=O)[C@H](Cc1ccccc1)NC(=O)[C@@H](NC(=O)[C@H](CCCCN)NC(=O)[C@@H](Cc1c[nH]c2ccccc12)NC(=O)[C@H](Cc1c[nH]c2ccccc12)NC(=O)[C@H](Cc1ccccc1)NC(=O)[C@H](N)Cc1ccccc1)[C@@H](C)O)C(N)=O and give its recorded % CT secretion inhibition vs. control.
13.6

Consider the compound CC(C)[C@@H]1NC(=O)[C@H](CCCCN)NC(=O)[C@@H](Cc2c[nH]c3ccccc23)NC(=O)[C@H](Cc2ccc(O)c(I)c2)NC(=O)[C@@H](NC(=O)[C@H](N)Cc2ccccc2)CSSC[C@@H](C(=O)N[C@H](C(N)=O)[C@@H](C)O)NC1=O and give its recorded % CT secretion inhibition vs. control.
5.3

Consider the compound CC[C@@H]1NC(=O)[C@H](CCCCN)NC(=O)[C@@H](Cc2c[nH]c3ccccc23)NC(=O)[C@H](Cc2ccc(O)cc2)NC(=O)[C@@H]2Cc3ccccc3CN2C(=O)[C@H](Cc2ccccc2)NC1=O [Cmpd #2, c[Tic-Tyr-D-Trp-Lys-Abu-Phe]] (cyclo([Tic]Y[dW]K[Abu]F)) and give its recorded % CT secretion inhibition vs. control.
−1.5

---

# System: medullary thyroid carcinoma primary cultures
# Test Name: Calcitonin secretion by MTC primary cultures (IRMA)
# Assay type: cell-based, human
# Condition Parameters: MTC primary culture #1 (non responder), 10^−8 M, six hours
Square brackets hold non-standard residues; d marks the D form. Peptide text beside a SMILES is read from it. Tic = O=C(O)[C@@H]1Cc2ccccc2CN1; Abu = CC[C@H](N)C(=O)O
Endpoint Label: % CT secretion inhibition vs. control
Give the figure together with its unit, number first.

Answer briefly: % CT secretion inhibition vs. control recorded on medullary thyroid carcinoma primary cultures for CC[C@@H]1NC(=O)[C@H](CCCCN)NC(=O)[C@@H](Cc2c[nH]c3ccccc23)NC(=O)[C@H](Cc2ccc(O)cc2)NC(=O)[C@@H]2Cc3ccccc3CN2C(=O)[C@H](Cc2ccccc2)NC1=O [Cmpd #2, c[Tic-Tyr-D-Trp-Lys-Abu-Phe]] (cyclo([Tic]Y[dW]K[Abu]F))
−6.1%

Answer briefly: % CT secretion inhibition vs. control recorded on medullary thyroid carcinoma primary cultures for CC(C)[C@@H]1NC(=O)[C@H](CCCCN)NC(=O)[C@@H](Cc2c[nH]c3ccccc23)NC(=O)[C@H](Cc2ccc(O)cc2)NC(=O)[C@@H](NC(=O)[C@H](N)Cc2ccc3ccccc3c2)CSSC[C@@H](C(=O)N[C@H](C(N)=O)[C@@H](C)O)NC1=O [lanreotide, reference compound]
−5.2%

Answer briefly: % CT secretion inhibition vs. control recorded on medullary thyroid carcinoma primary cultures for CC(C)[C@@H]1NC(=O)[C@H](CCCCN)NC(=O)[C@@H](Cc2c[nH]c3ccccc23)NC(=O)[C@H](Cc2ccc(O)c(I)c2)NC(=O)[C@@H](NC(=O)[C@H](N)Cc2ccccc2)CSSC[C@@H](C(=O)N[C@H](C(N)=O)[C@@H](C)O)NC1=O
−10.5%

Values from patent US20090099094A1
